CC50 at 48 h for assorted compounds
# test name: Cytotoxicity against African green monkey Vero E6 cells assessed as reduction in cell viability incubated for 48 hrs by MTT assay
# Assay type: toxicity, cell-based, Vero C1008
# measurement conditions: chlorocebus sabaeus

compound | CC50 at 48 h
COC(=O)[C@@H](Cc1ccc(O)c(O)c1)OC(=O)/C=C/c1ccc(O)c(O)c1 [METHYL ROSMARINATE] | > 1000 µM
CCCCCCCCCCCCNC(=O)[C@@H](Cc1ccc(O)c(O)c1)OC(=O)/C=C/c1ccc(O)c(O)c1 | 17.5 µM
O=C(/C=C/c1ccc(O)c(O)c1)O[C@H](Cc1ccc(O)c(O)c1)C(=O)NCc1ccccc1 | > 100 µM
C#CCNC(=O)[C@@H](Cc1ccc(O)c(O)c1)OC(=O)/C=C/c1ccc(O)c(O)c1 | > 100 µM
O=C(/C=C/c1ccc(O)c(O)c1)O[C@H](Cc1ccc(O)c(O)c1)C(=O)NCCCCCCCl | > 100 µM
COCCNC(=O)[C@@H](Cc1ccc(O)c(O)c1)OC(=O)/C=C/c1ccc(O)c(O)c1 | > 100 µM
O=C(/C=C/c1ccc(O)c(O)c1)O[C@H](Cc1ccc(O)c(O)c1)C(=O)N1CCCCC1 | > 100 µM
CCc1cccc(NC(=O)[C@@H](Cc2ccc(O)c(O)c2)OC(=O)/C=C/c2ccc(O)c(O)c2)c1 | 50.7 µM
O=C(/C=C/c1ccc(O)c(O)c1)O[C@H](Cc1ccc(O)c(O)c1)C(=O)NCc1ccco1 | > 100 µM
CCCCCCNC(=O)[C@@H](Cc1ccc(O)c(O)c1)OC(=O)/C=C/c1ccc(O)c(O)c1 | > 100 µM
O=C(/C=C/c1ccc(O)c(O)c1)O[C@H](Cc1ccc(O)c(O)c1)C(=O)N1CCOCC1 | > 100 µM

* * *

# Tested on: SARS-CoV-2
# test name: Antiviral activity against SARS-CoV-2 Omicron BA.1 infected in African green monkey Vero E6 cells assessed as inhibition of plaque formation at 50 uM incubated for 1 hr followed by virus-drug mixture washout and further addition of media without compound for 5 to 7 days by crystal violet staining based assay relative to control
# Format: functional, Severe acute respiratory syndrome coronavirus 2
# measurement conditions: Severe acute respiratory syndrome coronavirus 2, Omicron BA.1, Vero C1008
Label rule met when inhibition at 50 µM is at or above 60%; otherwise label rule not met.

smiles str | category
C#CCNC(=O)[C@@H](Cc1ccc(O)c(O)c1)OC(=O)/C=C/c1ccc(O)c(O)c1 | rule not met
O=C(/C=C/c1ccc(O)c(O)c1)O[C@H](Cc1ccc(O)c(O)c1)C(=O)NCc1ccccc1 | rule not met
O=C(/C=C/c1ccc(O)c(O)c1)O[C@H](Cc1ccc(O)c(O)c1)C(=O)O | rule not met
COCCNC(=O)[C@@H](Cc1ccc(O)c(O)c1)OC(=O)/C=C/c1ccc(O)c(O)c1 | rule not met
O=C(/C=C/c1ccc(O)c(O)c1)O[C@H](Cc1ccc(O)c(O)c1)C(=O)N1CCCCC1 | rule met
O=C(/C=C/c1ccc(O)c(O)c1)O[C@H](Cc1ccc(O)c(O)c1)C(=O)NCc1ccco1 | rule met

* * *

# Test system: SARS-CoV-2
# test name: Antiviral activity against SARS-CoV-2 Delta infected in African green monkey Vero E6 cells assessed as inhibition of plaque formation incubated for 1 hr followed by virus-drug mixture washout and further addition of media without compound for 5 to 7 days by crystal violet staining based assay
# Format: functional, organism-based
# measurement conditions: Severe acute respiratory syndrome coronavirus 2, Delta, Vero C1008

compound | IC50, µM
COC(=O)[C@@H](Cc1ccc(O)c(O)c1)OC(=O)/C=C/c1ccc(O)c(O)c1 [METHYL ROSMARINATE] | 88.9
CCc1cccc(NC(=O)[C@@H](Cc2ccc(O)c(O)c2)OC(=O)/C=C/c2ccc(O)c(O)c2)c1 | 12.6
CCCCCCCCCCCCNC(=O)[C@@H](Cc1ccc(O)c(O)c1)OC(=O)/C=C/c1ccc(O)c(O)c1 | 0.93
